# System: E. coli
# ASSAY PROCEDURE: Range of MIC for E. coli strains
# RUN PARAMETERS: Escherichia coli, 20 h, read-out: Range of MIC, E. coli (Mouse Serum)
Give MIC for every item shown.

**Q:** Form field: MIC recorded for CN(C)c1cc(NC(=O)CN(C(=O)OCOC(=O)c2ccc(-c3ccccc3)cc2)C(C)(C)C)c(O)c2c1C[C@H]1C[C@H]3[C@H](N(C)C)C(O)=C(C(N)=O)C(=O)[C@@]3(O)C(O)=C1C2=O [Example 71] with E. coli (enter value)
**A:** 0.12 to 0.25 µg/mL

**Q:** // query: CN(C)c1cc(NC(=O)CN(C(=O)OCOC(=O)c2ccccc2CCc2ccccc2)C(C)(C)C)c(O)c2c1C[C@H]1C[C@H]3[C@H](N(C)C)C(O)=C(C(N)=O)C(=O)[C@@]3(O)C(O)=C1C2=O [Example 103]
**A:** 8 to 16 µg/mL

**Q:** Same read-out for CCCCCCC(=O)OCOC(=O)N(CCC)CC(=O)Nc1cc(N(C)C)c2c(c1O)C(=O)C1=C(O)[C@]3(O)C(=O)C(C(N)=O)=C(O)[C@@H](N(C)C)[C@@H]3C[C@@H]1C2 [Example 19] ?
**A:** 0.5 to 2 µg/mL

// provenance: patent US20070049564A1
